Kindly state IC50 for each of the entries shown.
- Study System: Carboxy-terminal domain RNA polymerase II polypeptide A small phosphatase 1 (Homo sapiens)
- Sequence (Q9GZU7 whole entry, the tested form may be a part): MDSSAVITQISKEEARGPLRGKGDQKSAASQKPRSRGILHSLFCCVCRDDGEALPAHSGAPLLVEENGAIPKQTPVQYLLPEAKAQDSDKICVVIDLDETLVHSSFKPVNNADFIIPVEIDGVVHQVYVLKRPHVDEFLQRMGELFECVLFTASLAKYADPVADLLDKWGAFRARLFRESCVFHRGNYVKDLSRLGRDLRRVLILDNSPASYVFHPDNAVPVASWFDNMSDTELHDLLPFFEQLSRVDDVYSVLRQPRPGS
- Assay Summary: CTDSP1 inhibitors, concentration-response, biochemical, absorbance readout, ultra-high-throughput screen actives (AID 540297)
- Type: functional
Active and inactive are the calls of the source.

State its IC50 for this molecule: CCOC(=O)C1CCCN(C(=O)c2ccc(CS(=O)(=O)c3ccc(C)cc3)o2)C1 (stereo not drawn)
7.41 µM (active)

State its IC50 for this molecule: Cc1ccccc1NC(=O)CN1C(=O)N/C(=C\c2cccn2-c2cccc(C(=O)O)c2)C1=O
4.42 µM (active)

State its IC50 for this molecule: Cc1ccccc1NC(=O)Cn1c(O)c(N=NC(=O)c2ccccc2O)c2ccccc21
1.23 µM (active)

State its IC50 for this molecule: Cc1c(Cc2ccccc2)c(=O)oc2c(C)c(OCC(=O)NC[C@H]3CC[C@H](C(=O)O)CC3)ccc12
4.87 µM (active)

State its IC50 for this molecule: Cc1ccc(NC(=O)COc2ccc(/C=N/NC(=O)CSCc3ccccc3)cc2)cc1
9.82 µM (active)

State its IC50 for this molecule: O=C(NCc1ccco1)c1c2c(nc3ccccc13)CCC2
5.65 µM (active)

State its IC50 for this molecule: CCOC(=O)/C=C1\CN(C(C)c2ccccc2)S(=O)(=O)c2ccccc21 (stereo not drawn)
12.3 µM (active)

State its IC50 for this molecule: Cc1ccc(C(=O)Nc2cccc(NC(=O)c3ccc(C)c([N+](=O)[O-])c3)n2)cc1[N+](=O)[O-]
4.55 µM (active)

* * *

- Assay Summary: cells
Calls of active or inactive are those of the source.
Measurement Type: IC50

State its IC50 for this compound: O=C(c1cccc(COc2cccc3ccccc23)c1)N1CCCC1
> 50 µM (active)

State its IC50 for this compound: CC(C)c1oc(=O)cc2c1[C@@H](O)[C@H]1OC(=O)[C@@]3(C)CC[C@@H](O)[C@@]2(C)C13 (some centres undefined)
12.2 µM (active)

State its IC50 for this compound: COc1ccccc1NCC(=O)Nc1cc(S(=O)(=O)N2CCOCC2)ccc1N1CCOCC1
5.88 µM (active)

State its IC50 for this compound: O=C(NC(Cc1c[nH]c2ccccc12)C(=O)Nc1ccc(F)c([N+](=O)[O-])c1)c1cccs1 (centres undefined)
10.2 µM (active)

* * *

- Study System: UniProt:P9WHJ3
- Assay Summary: Fluorescence Cell-Free Homogeneous Dose Retest to Identify Inhibitors of RecA-Intein Splicing Activity. [Related pubchem assays (depositor defined):AID2097, AID2223, AID489010, AID492950]
- Format: functional
Calls of active or inactive are those of the source.
Measurement Type: EC50

State its EC50 for this compound: CCCCn1c(NC(=O)c2ccc(Br)o2)c(S(=O)(=O)c2ccccc2)c2nc3ccccc3nc21
108 µM (inconclusive)

State its EC50 for this compound: Cc1cc(C)cc(Oc2coc3cc(OC(=O)c4cccs4)ccc3c2=O)c1
18.8 µM (active)

State its EC50 for this compound: O=C1c2cc([N+](=O)[O-])ccc2-c2ncccc21
11.1 µM (active)

State its EC50 for this compound: N#Cc1c(N)n(CCOC(=O)c2ccc(Cl)cc2)c2nc3ccccc3nc12
1.8 µM (active)

State its EC50 for this compound: COc1ccc(N(C(=O)CCl)C(C(=O)NCCc2ccccc2)c2cccs2)cc1Cl (stereo not given)
0.24 µM (active)

* * *

- Test system: INS1
- Assay Summary: INS-1E survival protection against cytokine death – cell-based, luminescence, retest, dose response (AID 449756);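 further: cell death triggered by IL-1 beta plus TNF-alpha plus IFN-gamma mixture; protective hits raise ATP signal compared with cytokine alone wells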
- Assay type: functional
- Condition Set: Rattus norvegicus
Calls of active or inactive are those of the source.
Measurement Type: AC50

# assay system INS1: give AC50 of FC(F)(F)c1nnc2c(Sc3ccccc3)nc3ccc(Cl)cc3n12
7.41 µM (active)

# assay system INS1: give AC50 of COc1ccc(-c2csc(NC(=O)C3CCN(c4ncnc5sc(C)c(C)c45)CC3)n2)cc1OC
3.6 µM (active)

# assay system INS1: give AC50 of CCCOc1cc(NCc2ccccc2)c2ncn(C(C)C)c2c1
8.46 µM (active)

# assay system INS1: give AC50 of Cc1cccnc1Nc1nc(-c2ccccn2)cs1
0.29 µM (active)

# assay system INS1: give AC50 of COc1ccc(N(C(=O)CCl)C(C(=O)NCCc2ccccc2)c2cccs2)cc1Cl (stereo not drawn)
2.82 µM (active)

# assay system INS1: give AC50 of CC(=O)N1CCc2cc(S(=O)(=O)NCCC3=CCCCC3)ccc21
4.54 µM (active)

# assay system INS1: give AC50 of Cc1cc(C(=O)CSc2nc3ccccc3c(=O)n2C)c(C)n1Cc1ccc2c(c1)OCO2
1.41 µM (active)

# assay system INS1: give AC50 of S=C(Nc1ccc(Nc2ccccc2)cc1)Nc1ccccn1
6.34 µM (active)

* * *

- Assay Summary: viability of uninfected HEp-2 cells – cell-based, HTS, cytotoxicity control for RSV inhibitor project, dose response (AID 2410)
- Assay type: functional
- Condition Set: human respiratory syncytial virus
Calls of active or inactive are those of the source.
Kindly state CC50 for each of the entries shown.

State its CC50 for this compound: COc1cccc(-c2ncc3ccccn23)c1
44.1 µM (active)

State its CC50 for this compound: CCC(C)Sc1nc2c(c(=O)[nH]c(=O)n2C)n1C (configuration not stated)
20.8 µM (active)

State its CC50 for this compound: Cc1ccc(N2CCN(C(=O)c3nn(C)c4c3CS(=O)(=O)c3ccccc3-4)CC2)c(C)c1
10.3 µM (active)

State its CC50 for this compound: O=C(NC(Cc1c[nH]c2ccccc12)C(=O)Nc1ccc(F)c([N+](=O)[O-])c1)c1cccs1 (configuration not stated)
13.1 µM (active)

State its CC50 for this compound: Cc1cc(/C=C2/C(=O)N(C)C(=S)N2C)c(C)n1C1CC1
40.7 µM (active)

State its CC50 for this compound: Nc1ccccc1C(=O)Nc1ccc(Cl)cc1Cl
35.7 µM (active)

State its CC50 for this compound: CCn1c2ccccc2c2cc(/C=N/n3cnnc3)ccc21
18.2 µM (active)

* * *

- Study System: Zinc finger protein mex-5 (Caenorhabditis elegans)
- Sequence (Q9XUB2 whole entry): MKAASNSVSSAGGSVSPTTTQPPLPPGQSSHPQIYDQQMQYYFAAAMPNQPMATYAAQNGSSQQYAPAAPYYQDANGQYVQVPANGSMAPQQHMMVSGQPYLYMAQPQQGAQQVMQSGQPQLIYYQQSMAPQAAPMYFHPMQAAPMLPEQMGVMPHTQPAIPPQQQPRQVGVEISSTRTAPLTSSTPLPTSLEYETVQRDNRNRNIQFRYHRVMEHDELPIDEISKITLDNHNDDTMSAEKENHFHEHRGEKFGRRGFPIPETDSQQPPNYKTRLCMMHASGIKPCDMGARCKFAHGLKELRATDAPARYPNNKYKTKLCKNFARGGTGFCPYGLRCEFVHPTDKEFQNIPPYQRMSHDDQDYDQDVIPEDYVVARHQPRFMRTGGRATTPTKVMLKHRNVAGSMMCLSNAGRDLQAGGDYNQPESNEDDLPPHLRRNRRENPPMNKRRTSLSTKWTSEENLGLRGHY
- Assay Summary: potency of MEX-5 RNA-binding blockers – biochemical, C. elegans, fluorescence polarization, dose response (AID 1960)
The source made the active and inactive calls.
Measurement Type: EC50

State its EC50 for this molecule: CN(C)c1ccc(/C=C/c2nc3ccccc3s2)cc1
> 300 µM (not active)

State its EC50 for this molecule: Cc1ccc(CNC(=O)/C(C#N)=C\c2ccc(N(C)C)cc2)cc1
> 300 µM (not active)

State its EC50 for this molecule: Cc1ccc(/C=C2\Oc3c(ccc(O)c3CN3CCN(CCO)CC3)C2=O)cc1
73.9 µM (active)

State its EC50 for this molecule: O=C1NC(=O)N(c2cccc(Cl)c2)C(=O)/C1=C\Nc1ccccn1
> 300 µM (not active)

State its EC50 for this molecule: COc1cc(/C=N/Nc2nc(O)nnc2C)ccc1O
31.1 µM (active)

State its EC50 for this molecule: CCN1/C(=C2/SC(=S)N(NC(C)=O)C2=O)Sc2ccc(OC)cc21
> 300 µM (not active)

State its EC50 for this molecule: CCCCC1=CC2=CC(=O)C(C)(OC(=O)CC)C(=O)C2=CO1 (stereo unspecified)
21.6 µM (active)

State its EC50 for this molecule: COCCn1c(=N)c(S(=O)(=O)c2ccc(Br)cc2)cc2c(=O)n3ccccc3nc21
4.16 µM (active)

State its EC50 for this molecule: COC(=O)CCCC1=CC2=CC(=O)C(C)(OC(=O)c3ccco3)C(=O)C2=CO1 (stereo unspecified)
22.3 µM (active)

State its EC50 for this molecule: COC(=O)CCCC1=CC2=CC(=O)C(C)(OC(=O)CCc3ccccc3)C(=O)C2=CO1 (stereo unspecified)
26.7 µM (active)

State its EC50 for this molecule: O=Cc1ccc2cccc3c2c1NC(C(F)(F)F)=N3
24.8 µM (active)
